Reference source: ChEMBL document CHEMBL4350979

Quick reference: CC50 at 48 h of the listed items.
- assayProtocol: Cytotoxicity against mouse NCTC-929 cells assessed as reduction in cell viability incubated for 48 hrs by MTT assay
- Assay type: cell-based
- reportedConditions: NCTC-929 (L929) cells

Exercise: Data request, read-out CC50 at 48 h, for COc1cc(CC(C)O)ccc1Oc1cc(CC(C)O)cc(OC)c1OC (centres undefined)
Key: > 200 µM

Exercise: Data request, read-out CC50 at 48 h, for CCCc1ccc(Oc2cc(CCC)cc(OC)c2OC)c(OC)c1
Key: > 200 µM

Exercise: Data request, read-out CC50 at 48 h, for CCCOc1c(OC)cc(CCC)cc1Oc1ccc(CCC)cc1OC
Key: > 200 µM

Exercise: Data request, read-out CC50 at 48 h, for O=C(Cn1ccnc1[N+](=O)[O-])NCc1ccccc1
Key: 191 µM
